- Tested on: tet-on competent MLL/AF9+Nras AML
- ASSAY TEXT: Pooled negative selection RNAi screening (deep sequencing)
- Type: cell-based, mouse
- ASSAY CONTEXT: deep sequencing reads, On Dox compared to T0
Response field class: enum, chosen by comparing Fold depletion in AML against lower = under 1 Fold, middle = from 1 Fold up to 50 Fold, upper = 50 Fold and over

Using the reported Fold depletion in AML, which band applies to Myc.1891: shRNA, SEQ ID NO: 147 (nucleic acid) TGCTGTTGACAGTGAGCGCACGACGAGAACAGTTGAAACATAGTGAAGCCACAGATGTATGTTTCAACTGTTCTCGTCGTTTGCCTACTGCCTCGGA ?
middle

Using the reported Fold depletion in AML, which band applies to Pcna.1186: shRNA, SEQ ID NO: 159 (nucleic acid) TGCTGTTGACAGTGAGCGAATCAATGATCTTGACGCTAAATAGTGAAGCCACAGATGTATTTAGCGTCAAGATCATTGATGTGCCTACTGCCTCGGA ?
upper

Using the reported Fold depletion in AML, which band applies to Ptgs2.3711: neutral control shRNA, SEQ ID NO: 212 (nucleic acid) TGCTGTTGACAGTGAGCGCAACGTTCATGGATAAATTCTATAGTGAAGCCACAGATGTATAGAATTTATCCATGAACGTTATGCCTACTGCCTCGGA ?
middle

Using the reported Fold depletion in AML, which band applies to Ptgs2.1082: neutral control shRNA, SEQ ID NO: 209 (nucleic acid) TGCTGTTGACAGTGAGCGCCAAGATAGTGATCGAAGACTATAGTGAAGCCACAGATGTATAGTCTTCGATCACTATCTTGATGCCTACTGCCTCGGA ?
lower

Using the reported Fold depletion in AML, which band applies to Fn3k.298: shRNA, SEQ ID NO: 122 (nucleic acid) TGCTGTTGACAGTGAGCGAAAGAGCCTTAGCAGTCAGGCATAGTGAAGCCACAGATGTATGCCTGACTGCTAAGGCTCTTCTGCCTACTGCCTCGGA ?
upper
